From various publications: IC50 for Amine oxidase [flavin-containing] B (Homo sapiens).

Prompt line: Checklist item: IC50 tested on Amine oxidase [flavin-containing] B (Homo sapiens), entry CS(=O)(=O)Nc1ccc(-c2coc3cc(C#CC4CN(C(=O)C5CC5(F)F)C4)ccc3c2=O)cc1 (stereo not shown) , value?
Response line: > 130 µM

Prompt line: Which measured IC50 belongs to O=C(Nc1ccc([C@@H]2C[C@H]2NCc2ccc(Cl)c(Cl)c2)cc1)c1ccc(-c2ccccc2)cc1 (relative stereo) , tested on Amine oxidase [flavin-containing] B (Homo sapiens)?
Response line: 3.4 µM

Prompt line: Request: IC50, test system Amine oxidase [flavin-containing] B (Homo sapiens), entry O=C(NCc1ccc(-c2cc(=O)[nH]cc2F)cc1)c1c(Cl)cccc1Cl
Response line: > 130 µM

---

Before we begin, note that these IC50 values for Amine oxidase [flavin-containing] B (Homo sapiens) originate from several publications.
Write the number in nM without appending the unit.

Past entries and their recorded results:
compound	system-tested	measurement-label	assay-value
COC(CN1C(=O)c2ccc(OCc3ccc(F)cc3)cc2C1=O)C(F)(F)F (stereo not shown)	Amine oxidase [flavin-containing] B (Homo sapiens)	IC50	45
NC(=O)[C@H](CO)NC(=O)c1ccc(OCc2cccc(F)c2)c(F)c1	Amine oxidase [flavin-containing] B (Homo sapiens)	IC50	12
NC(=O)C#Cc1ccc(OCc2cccc(F)c2)cc1	Amine oxidase [flavin-containing] B (Homo sapiens)	IC50	98
NC(=O)[C@H](CO)NC(=O)c1ccc(OCc2ccc(C(F)(F)F)cc2)c(F)c1	Amine oxidase [flavin-containing] B (Homo sapiens)	IC50	25
Cn1cncc1C#Cc1ccc2c(=O)c(-c3ccc(NS(C)(=O)=O)cc3)coc2c1	Amine oxidase [flavin-containing] B (Homo sapiens)	IC50	365
NC(=O)CNC(=O)c1ccc(OCc2ccc(F)cc2)cc1F	Amine oxidase [flavin-containing] B (Homo sapiens)	IC50	11.6

Prompt line: Query for Amine oxidase [flavin-containing] B (Homo sapiens): what IC50 does the record show for COC(=O)CC(=O)Nc1ccc(OCc2cc(F)c(F)cc2F)cc1 ?
Response line: 11

Prompt line: Item CN(C)c1ccc(-c2nc3ccc(F)nc3o2)cc1 with Amine oxidase [flavin-containing] B (Homo sapiens) - IC50?
Response line: 31

Prompt line: I'm curious: which IC50 was measured for COc1ccc(CN[C@@H]2C[C@H]2c2ccc(NC(=O)c3ccc(-c4ccccc4)cc3)cc2)cc1 (relative stereo) tested on Amine oxidase [flavin-containing] B (Homo sapiens)?
Response line: 4700

Prompt line: Please tell me: IC50 of COC(=O)CC(=O)Nc1ccc(C=Cc2ccc(F)cc2)cc1 , system Amine oxidase [flavin-containing] B (Homo sapiens)?
Response line: 10

Prompt line: IC50 of NCCN[C@@H]1C[C@H]1c1ccc(NC(=O)c2ccc(-c3ccccc3)cc2)cc1 (relative stereo) on Amine oxidase [flavin-containing] B (Homo sapiens)?
Response line: 9300

Prompt line: Hi! What's the reported IC50 for NC(=O)[C@H](CO)N1C(=O)c2ccc(OCc3cccc(F)c3)cc2C1=O on Amine oxidase [flavin-containing] B (Homo sapiens)?
Response line: 20

Prompt line: Any idea what IC50 came out for COC(=O)CC(=O)Nc1ccc(OCc2cccc(F)c2)c(Cl)c1 on Amine oxidase [flavin-containing] B (Homo sapiens)?
Response line: 10

Prompt line: // fetch Amine oxidase [flavin-containing] B (Homo sapiens) IC50 for C[C@@H](C(N)=O)N1C(=O)c2ccc(OCc3ccc(F)cc3)cc2C1=O
Response line: 8

Prompt line: Hello, I am looking for reported IC50 with Amine oxidase [flavin-containing] B (Homo sapiens) for COC[C@H](C)N1C(=O)c2ccc(OCc3ccc(F)c(F)c3)cc2C1=O . Could you help?
Response line: 32

---

Several publications report IC50 on UniProtKB P27338; those values are gathered here.

Illustrative cases are given below, each with its answer.
compound	system-tested	assay-value
CS(=O)(=O)c1ccc(C(=O)Nc2ccc([C@@H]3C[C@H]3NCC3CC3)cc2)cc1 (relative stereo)	UniProtKB P27338	> 10 µM
O=C(Nc1ccc([C@@H]2C[C@H]2NCC2CC2)cc1)c1ccc2[nH]ncc2c1 (relative stereo)	UniProtKB P27338	> 10 µM
Cc1nccc(Cl)c1C(=O)NCc1ccc(-c2cccc(=O)[nH]2)cc1	UniProtKB P27338	> 10 µM
NC(=O)CNC(=O)c1ccc(OCc2ccc(F)c(F)c2)cn1	UniProtKB P27338	0.043 µM
Cc1cccc(Cl)c1C(=O)NCc1cnc(-c2cccc(=O)[nH]2)nc1	UniProtKB P27338	> 10 µM
COc1ccccc1-c1nc(COc2ccc3c(=O)n(-c4ccc(O)cc4)cnc3c2)no1	UniProtKB P27338	> 10 µM
O=C(Nc1ccc([C@@H]2C[C@H]2NCc2ccncc2)cc1)c1ccc(-c2ccccc2)cc1 (relative stereo)	UniProtKB P27338	> 10 µM
Cc1ccc(-c2ccc(C(=O)Nc3ccc([C@@H]4C[C@H]4NCC4CC4)cc3)cc2)cc1 (relative stereo)	UniProtKB P27338	> 10 µM

API: the following record is the query input.
Prompt line: API: value(readout=IC50, system=UniProtKB P27338) for record COC[C@H](C)N1C(=O)c2ccc(OCc3ccc(OC(F)(F)F)cc3)cc2C1=O
Response line: 0.047 µM

---

// note: IC50 values for Amine oxidase [flavin-containing] B (Homo sapiens, UniProt P27338) were reported in different studies

Sample answers from the record:
compound	IC50
CC(C)CN1CC(C#Cc2ccc3c(=O)c(-c4ccc(NS(C)(=O)=O)cc4)coc3c2)C1	> 130 µM
O=C(Nc1ccc([C@@H]2C[C@H]2NCC2CC2)cc1)c1n[nH]c2ccccc12 (relative stereo)	> 10 µM
CS(=O)(=O)Nc1ccc(-c2coc3cc(C#CC4(N)CCCCC4)ccc3c2=O)cc1	> 130 µM

Prompt line: Item under review: O=C(Nc1cccc(C(=O)Nc2ccc([C@@H]3C[C@H]3NCc3ccccc3)cc2)c1)c1ccccc1 (relative stereo) . Reported IC50?
Response line: > 10 µM

Prompt line: Given O=C(Nc1ccc([C@@H]2C[C@H]2NCC2CC2)cc1)c1cnn(-c2ccccc2)c1 (relative stereo) , state its recorded IC50.
Response line: > 10 µM

Prompt line: Fill blank: measured IC50 of the compound O=C(Nc1ccc([C@@H]2C[C@H]2NCc2ccccc2F)cc1)c1ccccc1 (relative stereo) is ____.
Response line: > 10 µM

Prompt line: // lookup IC50 for NC/C(=C\F)Cn1cc2c(=O)n(C3CC3)ccc2n1
Response line: > 100 µM

---

Literature roundup of Amine oxidase [flavin-containing] B (Homo sapiens) data, read-out pIC50.
pIC50: −log10 of the molar value.

Known results for molecules:
molecule	pIC50
CCC(CC)N[C@@H]1C[C@H]1c1ccc(NC(=O)c2ccc(-c3ccccc3)cc2)cc1 (relative stereo)	< 5.00
Cc1cccc(Cl)c1C(=O)NCc1ccc(-c2cc[nH]c(=O)c2)cc1	< 3.89

Prompt line: Fill blank: measured pIC50 of the molecule O=C(O)c1cccc(COc2ccc3c(=O)n(-c4ccc(O)cc4)cnc3c2)c1 is ____.
Response line: < 5.00

Prompt line: Consider the molecule CNC(=O)c1cnn(C/C(=C/F)CN)c1 and give its measured pIC50.
Response line: < 4.00

Prompt line: Given the molecule Cc1cccc(Cl)c1C(=O)NCc1ccc(-c2[nH]c(=O)ccc2F)cc1 , what is its reported pIC50?
Response line: < 5.00

Prompt line: Quick one: pIC50 of O=C(Nc1ccc([C@@H]2C[C@H]2NCCOCc2ccccc2)cc1)c1ccccc1 (relative stereo) ?
Response line: < 5.00

Prompt line: # input molecule: Cc1cc(-c2ccc3cc(OC[C@H](O)CF)ccc3n2)ccn1 ; wanted: its pIC50
Response line: 7.89

Prompt line: Recorded pIC50 for COc1ccc(CN[C@@H]2C[C@H]2c2ccc(NC(=O)c3cccc(Br)c3)cc2)cc1OC (relative stereo) , please?
Response line: < 5.00

Prompt line: Which measured pIC50 value corresponds to O=C(Nc1ccc([C@@H]2C[C@H]2NCC2CC2)cc1)c1cnc(-c2ccccc2)o1 (relative stereo) ?
Response line: < 5.00

---

Across several publications, the following IC50 results were reported for Amine oxidase [flavin-containing] B (Homo sapiens).

Some molecules with known IC50 results, for comparison:
molecule	IC50
COCCOc1cc(Cl)c(C(=O)NCc2ccc(-c3cc[nH]c(=O)c3)cc2)c(Cl)c1	> 130 µM
Cc1nccc(Br)c1C(=O)NCc1ccc(-c2[nH]c(=O)ccc2F)cc1	> 10 µM
CC(=O)N1CCCc2ccc(C(=O)Nc3ccc([C@@H]4C[C@H]4NCC4CC4)cc3)cc2C1 (relative stereo)	> 10 µM
Cc1ncc(C#Cc2ccc3c(=O)c(-c4ccc(NS(C)(=O)=O)cc4)coc3c2)n1C	> 130 µM
CCN1CCc2cn(C/C(=C/F)CN)cc2C1=O	> 100 µM
CS(=O)(=O)Nc1ccc(-c2coc3cc(C#Cc4ccccn4)ccc3c2=O)cc1	> 130 µM
CC(C)n1cncc1C#Cc1ccc2c(=O)c(-c3ccc(NS(C)(=O)=O)cc3)coc2c1	> 130 µM
O=C(Nc1ccc([C@@H]2C[C@H]2NCc2ccccc2)cc1)c1cccc(N2CCCCC2=O)c1 (relative stereo)	> 10 µM

Read the next record carefully.
Prompt line: For Amine oxidase [flavin-containing] B (Homo sapiens), provide IC50 of O=C(Nc1ccc([C@@H]2C[C@H]2NCC2CC2)cc1)c1c[nH]c2ccccc12 (relative stereo) please.
Response line: > 10 µM
